Target: AHR (Homo sapiens)
Construct: U87 MG glioblastoma cells (ATCC #HTB-14) endogenously expressing AHR; endogenous in cells; host or cells: U87 MG glioblastoma cells (ATCC #HTB-14)
Sequence (P35869 11-848): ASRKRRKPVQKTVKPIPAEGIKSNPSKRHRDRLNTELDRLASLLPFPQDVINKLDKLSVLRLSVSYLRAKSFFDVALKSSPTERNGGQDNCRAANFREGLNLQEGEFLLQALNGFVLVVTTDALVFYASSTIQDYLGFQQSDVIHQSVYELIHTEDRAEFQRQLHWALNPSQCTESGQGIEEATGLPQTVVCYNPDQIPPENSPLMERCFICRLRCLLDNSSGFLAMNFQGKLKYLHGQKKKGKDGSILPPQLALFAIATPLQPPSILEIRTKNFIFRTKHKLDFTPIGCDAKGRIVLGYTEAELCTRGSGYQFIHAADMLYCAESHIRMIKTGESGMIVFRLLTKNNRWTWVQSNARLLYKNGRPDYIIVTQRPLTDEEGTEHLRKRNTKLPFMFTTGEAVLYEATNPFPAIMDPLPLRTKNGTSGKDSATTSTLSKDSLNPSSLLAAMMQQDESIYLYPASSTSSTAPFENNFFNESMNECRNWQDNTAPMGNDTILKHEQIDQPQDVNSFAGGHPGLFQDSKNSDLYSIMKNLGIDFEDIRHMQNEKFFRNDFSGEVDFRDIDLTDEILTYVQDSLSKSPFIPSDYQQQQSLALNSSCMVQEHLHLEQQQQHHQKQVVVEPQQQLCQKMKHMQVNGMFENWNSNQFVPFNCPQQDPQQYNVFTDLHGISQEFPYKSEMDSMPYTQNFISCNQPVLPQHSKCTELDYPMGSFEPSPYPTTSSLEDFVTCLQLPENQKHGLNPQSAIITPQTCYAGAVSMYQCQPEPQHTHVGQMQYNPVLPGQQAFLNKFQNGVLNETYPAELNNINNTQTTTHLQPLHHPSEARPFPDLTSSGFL
Experiment: In vitro assay 1: antagonism in human cell line (AHR transactivation, firefly luciferase reporter, kynurenic acid prestimulated)
Type: cell-based
Settings: AHR Antagonism Human IC50 [M]
Protocol: Examples were tested in selected biological assays one or more times. […] Firefly luciferase and Renilla activity was determined by the DualGlo Luciferase Assay System (Promega, #2920). […]
value.kind: IC50 (M)

compound	IC50, M
COc1ccc(-c2nc3c4ccc(C(F)(F)F)cc4nc(N[C@@H]4CCCCNC4=O)n3n2)cc1	9.46e-07

I: Cn1cc(-c2nc3c4cccc(C(F)(F)F)c4nc(N[C@H]4CCCCNC4=O)n3n2)cn1
II: Cn1cc(-c2nc3c4ccccc4nc(NC4CCCNC4=O)n3n2)cn1 (single isomer, unassigned) [Example 20]
III: COc1cccc(-c2nc3c4ccccc4nc(NC4CNCCNC4=O)n3n2)c1 (single isomer, unassigned) [Example 117]
Task field, ranking: reported IC50, descending order. Write out the labels following the order that was asked for. II, III, I
(II: 1.24e-06 M, III: 9.04e-08 M, I: 4.39e-08 M)

###

target: AHR (Mus musculus); experiment: In vitro assay 3: antagonism in mouse cell line (AHR transactivation, firefly luciferase reporter, kynurenic acid prestimulated); assay type: cell-based; settings: Hepa 1c1c7 cells, 200 μM kynurenic acid, 20 hours, firefly luciferase reporter, read-out: AHR Antagonism Mouse IC50
Sequence (P30561 whole entry P471L/N533S/M589L, form open): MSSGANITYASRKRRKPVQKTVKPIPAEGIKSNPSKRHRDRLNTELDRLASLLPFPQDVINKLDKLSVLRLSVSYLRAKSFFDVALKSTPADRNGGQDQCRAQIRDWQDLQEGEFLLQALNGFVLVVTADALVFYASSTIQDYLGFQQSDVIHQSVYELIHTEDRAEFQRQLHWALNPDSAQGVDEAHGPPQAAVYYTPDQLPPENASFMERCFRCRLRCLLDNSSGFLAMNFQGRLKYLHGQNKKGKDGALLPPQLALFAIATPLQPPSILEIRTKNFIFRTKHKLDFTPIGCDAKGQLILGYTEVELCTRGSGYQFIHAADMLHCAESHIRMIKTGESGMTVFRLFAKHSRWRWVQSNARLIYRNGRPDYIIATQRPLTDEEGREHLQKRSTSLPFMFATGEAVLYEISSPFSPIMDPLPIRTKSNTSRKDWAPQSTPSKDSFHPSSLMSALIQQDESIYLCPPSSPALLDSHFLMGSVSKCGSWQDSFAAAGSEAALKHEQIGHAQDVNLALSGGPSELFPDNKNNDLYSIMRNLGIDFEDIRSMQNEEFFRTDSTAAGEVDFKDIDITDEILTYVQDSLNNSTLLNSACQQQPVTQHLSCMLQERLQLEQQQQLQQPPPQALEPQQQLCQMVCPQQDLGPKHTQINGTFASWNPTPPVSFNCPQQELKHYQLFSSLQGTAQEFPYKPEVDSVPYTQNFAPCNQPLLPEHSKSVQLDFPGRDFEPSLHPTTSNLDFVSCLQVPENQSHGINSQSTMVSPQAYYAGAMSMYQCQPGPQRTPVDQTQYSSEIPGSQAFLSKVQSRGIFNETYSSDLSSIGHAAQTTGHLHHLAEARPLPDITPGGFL
pIC50: −log10 of the molar value.
value.kind: pIC50

compound	pIC50
COc1ccc(-c2nc3c4cccc(S(C)(=N)=O)c4nc(N[C@@H]4CCCCNC4=O)n3n2)cc1 (mixture of isomers) [Example 853]	7.16
Cn1cc(-c2nc3c4cccc(Br)c4nc(N[C@@H]4CSCCNC4=O)n3n2)cn1	8.74
C[C@@H]1CN(C(=O)[C@@H](C)Nc2nc3c(Br)cccc3c3nc(-c4cnn(C)c4)nn23)CCN1C	7.61
COC(=O)[C@H](Nc1nc2c(Br)cccc2c2nc(-c3cnn(C)c3)nn12)C(C)C	8.20
COc1ccc(-c2nc3c4ccccc4nc(N[C@H](C)C(=O)N4CCN(C(=O)OC(C)(C)C)CC4)n3n2)cc1	8.29
CN(C)c1cccc2c1nc(N[C@@H]1CCCCNC1=O)n1nc(-c3cnn(C)c3)nc21	4.87
CCNC(=O)[C@@H](CC)Nc1nc2c(Br)cccc2c2nc(-c3ccc(Cl)cc3OC(F)F)nn12	9.09
COc1ccc(-c2nc3c4cccc(C5COC5)c4nc(N[C@@H]4CCCCNC4=O)n3n2)cc1	7.38
CCn1cc(-c2nc3c4cccc(Br)c4nc(N[C@@H]4CCCCNC4=O)n3n2)cn1	8.81
COC(=O)N1CCN(C(=O)[C@@H](C)Nc2nc3c(Br)cccc3c3nc(-c4cnn(C)c4)nn23)CC1	7.74

I: COc1ccc(-c2nc3c4cccc(N(C)C)c4nc(N[C@@H]4CCCCNC4=O)n3n2)cc1
II: CCn1cc(-c2nc3c4cccc(Br)c4nc(N[C@@H]4CCCCNC4=O)n3n2)c(C)n1
Could you kindly indicate whether I or II has the higher pIC50 value? Which one? Tell me its label. II
(II: 9.32, I: 7.33)

A: CCn1cc(-c2nc3c4cccc(Br)c4nc(N[C@@H]4CNCCNC4=O)n3n2)c(C)n1
B: CC(C)[C@@H](Nc1nc2c(Br)cccc2c2nc(-c3cnn(C)c3)nn12)C(=O)N1CCN(C)CC1
Returns: the label, A or B , whose recorded pIC50 is the lower number. The response must carry the label of the picked entry. B
(B: 8.24, A: 8.73)

1: CCNC(=O)[C@H](CC)Nc1nc2c(Br)cccc2c2nc(-c3ccc(Cl)cc3OC(F)F)nn12
2: CCn1cc(-c2nc3c4cccc(S(C)(=O)=O)c4nc(N[C@@H]4CCCCNC4=O)n3n2)c(C)n1
3: O=C1NCCCC[C@H]1Nc1nc2c(Br)cccc2c2nc(-c3cnn(C4CCC4)c3)nn12
Sort ascending by pIC50. Returns: the labels arranged in the requested order. 2, 1, 3

a: O=C1NCCNC[C@H]1Nc1nc2c(Br)cccc2c2nc(-c3cnn(C(F)F)c3)nn12
b: C[C@@H](Nc1nc2c(Br)cccc2c2nc(-c3cnn(C)c3)nn12)C(=O)N1CCNCC1
c: Cn1cc(-c2nc3c4cccc(S(C)(=O)=O)c4nc(N[C@@H]4CCCCNC4=O)n3n2)cn1
// smallest pIC50 at index 0, largest at the end // rank by listing labels in the order requested c, b, a
